- tested.target: T1, flag-tagged soluble TL3 (amino acids 105-251 of SEQ ID NO:234) (Homo sapiens (Human), UniProt O75888 105-250)
- T1 construct: Heterologous flag-tagged control protein, immobilized in the ELISA; also called flagged tagged TL-3; not shown: Flag tag
- T1 sequence: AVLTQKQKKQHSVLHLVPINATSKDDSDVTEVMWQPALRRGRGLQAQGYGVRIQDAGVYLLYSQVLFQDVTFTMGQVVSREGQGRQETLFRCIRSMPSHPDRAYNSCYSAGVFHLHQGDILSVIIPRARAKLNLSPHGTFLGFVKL
- experimental.details: phage ELISA on immobilized flag-tagged soluble TL3
measured.metric: binding result

>>> reported_value("GMBC666 (scFv) scFv: EVQLVESGGGLAKPGESLRLSCEASGFEFNYAWMSWVRQAPGKGLEWVGRSRSEASGGTTDYAAPLQDRFTISRDDSKNTLYLQVNSLKIEDTGVYFCKWEKSEYYGMDVWGKGTMVTVSSGGGGSGGGGSGGGGSQSVLTQPPSVSAAPGQKVTISCSGSTSNIGNNYVSWYQQHPGKAPKLMIYDVSKRPSGVPDRFSGSKSGNSASLDISGLQSEDEADYYCAAWDDSLSEFLFGTGTKLTVLG")
"no binding"
>>> reported_value("GMCC107 (scFv) scFv: QVQLVQSGAEVKKPGASVKVSCRTSGYTFTDHSMHWVRQAPGQRFEWMGWIGADSGSTQYSRNFQGRLTIGRDTSASTVYMELTSLRSEDTAVYYCARVGGGQGWYSGMDVWGRGTLVTVSSGGGGSGGGGSGGGGSAQAVLTQPSSVSGAPGQRVTISCTGSSSNIGASYDVHWYQQLPGTAPKLLIYNNNNRPSGVPDRFSGSRSGTSASLAITGLQAEDEADYYCHSYDSNLSGDVFGSGTKLTVLG")
"no binding"
